Test system: A498 renal
Assay: NCI tumour cell line growth inhibition, 48 h
measure: TGI

These solved cases illustrate the format of a correct answer.
compound	result
O=C(Nc1sccc1S(=O)(=O)c1ccc(Cl)cc1)c1ccc(Cl)cc1	> 100 µM
CC1CCC2(OC1)OC1CC3C4CCC5CC(O)CCC5(C)C4CC(=O)OC3(C)C1C2C (centres undefined)	> 100 µM
COc1ccc2cc1Oc1ccc(cc1)CC1c3cc(OC)c(cc3CCN1C)Oc1c(OC)c(OC)cc3c1C(C2)N(C)CC3 (centres undefined)	23.9 µM
CC12CCCCC1C(=O)C2(Cl)Cl (centres undefined)	12.7 µM
O=C1C(Br)=C(C2=CC(=P(c3ccccc3)(c3ccccc3)c3ccccc3)C=C2)C(=O)C(Br)=C1C1=CC(=P(c2ccccc2)(c2ccccc2)c2ccccc2)C=C1	> 100 µM

For reference, reported TGI for O=C(NC1C(O)C(O)C(CO)OC1n1cc(F)c(=O)[nH]c1=O)OCc1ccccc1 (centres undefined) stands at > 100 µM

For reference, reported TGI for COc1cc(-c2nn(-c3ccc(NC(=O)NCCNS(=O)(=O)c4ccc(F)cc4)cc3)cc2-c2ccncc2)ccc1Cl stands at 2.18 µM

For reference, reported TGI for C[C@@H](c1ccccc1)C(CC#N)[C@H]1CCC[C@]1(O)C#Cc1ccc2c(c1)OCO2 (some centres undefined) stands at 34.9 µM

For reference, reported TGI for CC1(C)COP(=S)(c2ccccn2)O[C@@H]1c1ccccc1 (some centres undefined) stands at > 100 µM

For reference, reported TGI for CCCC(=O)OCC1OC(n2cnc3c(=S)nc(N)[nH]c32)C(OC(=O)CCC)C1OC(=O)CCC (centres undefined) stands at > 35.9 µM

* * *

Entries annotated with measured TGI
System: SNB-75 CNS
Test: NCI tumour cell line growth inhibition, 48 h
Write down the numeric answer in µM and omit the unit.

These solved cases illustrate the format of a correct answer.
compound	TGI / µM
COC(=O)C(=O)C(C(=O)C(=O)Nc1ccc([N+](=O)[O-])cc1[N+](=O)[O-])c1nc2ccc(Cl)cc2[nH]c1=O (configuration not stated)	73.1
CC12CCCCC1C(=O)C2(Cl)Cl (configuration not stated)	18.3
Cn1c(=O)nc2n(-c3cccc(Cl)c3)c3ccccc3nc-2c1=O	51.8

SNB-75 CNS data for COc1cc(O)cc2oc(-c3ccc(O)cc3)cc(=O)c12 ; its TGI: 62.7

* * *

System: OVCAR-5 ovarian
Experiment: NCI tumour cell line growth inhibition, 48 h; in the data active means GI50 below about 0.43 µM; inactive means the rest
Field 'call' accepts True = active, False = inactive

Reference set (3 entries):
molecule	class
CCOC(=O)CCC(NC(=O)c1ccc(Sc2nc3cc(N)cc(N)c3nc2-c2ccccc2)cc1)C(=O)OCC (stereo unspecified)	False
COc1cccc(/C=C2\COc3ccc(O)c(O)c3C2=O)c1	False
O=C1OCC(C#Cc2ccccc2)=C1Br	False

For this molecule, state the assay outcome: CC(C)OP(=O)(OC(C)C)c1ncc(-c2ccc(C(F)(F)F)cc2)c(NC2CCCCCC2)n1
False

For this molecule, state the assay outcome: CC(C)(C)C(=O)OCCNc1nc(-c2ccccc2)nc2ccccc12
False

For this molecule, state the assay outcome: COc1ccc(C(=O)c2cc(OC)c(OC)c(OC)c2)cc1OC(=O)C(Cl)(Cl)Cl
False

* * *

System: CAKI-1 renal
Assay: NCI tumour cell line growth inhibition, 48 h
measure: TGI

chemical structure	TGI
Nc1nc(N)c2ncn(-c3ccc(Br)cc3)c2n1	> 45.3 µM
Nc1ccc(C(=O)N/C(=C\C=C\c2ccco2)c2nc3c4c(ccc3[nH]2)C(=O)c2ccccc2C4=O)cc1	> 100 µM
COc1ccc([C@H]2CC(=O)C[C@H](c3ccc(OC)cc3OC)C23C(=O)c2ccccc2C3=O)c(OC)c1	> 100 µM
Oc1ccc[n+](Cc2ccccc2)c1	> 100 µM
COC(=O)c1c(C)c2n(c1C)C(=O)C(c1ccccc1)=C2	> 100 µM

For reference, reported TGI for O=S(=O)(Nc1ccc(Cl)c(F)c1)c1ccc(-c2cnc(C3CC3)o2)cc1 stands at 15.2 µM

* * *

Test system: KM12 colon
Assay: NCI tumour cell line growth inhibition, 48 h
Entries annotated with measured TGI

These solved cases illustrate the format of a correct answer.
molecule	measure	result
Oc1ccc[n+](Cc2ccccc2)c1	TGI	> 100 µM
O=C(OCCO)C1CC2CC1C1(C2)OCCO1 (stereo unspecified)	TGI	> 100 µM
COc1ccc2c(c1)[n+](=O)c(C(=O)C/C(=N/NC(=O)c1ccccc1O)C(=O)Nc1ccc(Cl)c(C(F)(F)F)c1)c(C)n2[O-]	TGI	> 100 µM
Nc1nc(/C=C\c2ccc([N+](=O)[O-])s2)nc(N2CCOCC2)n1	TGI	16.5 µM

For reference, reported TGI for COc1ccc(-c2nc3c(-c4ccccc4)nc(-c4ccccc4)cn3c2-c2ccc(OC)cc2)cc1 stands at > 100 µM

For reference, reported TGI for Nc1nc(N)c2ncn(-c3ccc(Br)cc3)c2n1 stands at > 45.7 µM

* * *

Tested on: RXF 393 renal
Experiment: NCI tumour cell line growth inhibition, 48 h
measure: GI50

chemical structure	GI50
O=S(=O)(Nc1ccc(Cl)c(F)c1)c1ccc(-c2cnc(C3CC3)o2)cc1	0.282 µM

For reference, reported GI50 for CC(C)OP(=O)(OC(C)C)c1ncc(-c2ccc(C(F)(F)F)cc2)c(NC2CCCCCC2)n1 stands at > 10 µM

For reference, reported GI50 for COc1cc(-c2nn(-c3ccc(NC(=O)NCCNS(=O)(=O)c4ccc(F)cc4)cc3)cc2-c2ccncc2)ccc1Cl stands at 0.247 µM

For reference, reported GI50 for COc1ccc(-c2nc3c(-c4ccccc4)nc(-c4ccccc4)cn3c2-c2ccc(OC)cc2)cc1 stands at 62.7 µM

For reference, reported GI50 for NCCNC1=CC(=O)c2nc3ccccc3c3ccnc1c23 stands at 3.97 µM

* * *

Entries annotated with measured TGI
Tested on: NCI/ADR-RES ovarian
Experiment: NCI tumour cell line growth inhibition, 48 h
Write down the numeric answer in µM and omit the unit.

For reference, reported TGI for NCCNC1=CC(=O)c2nc3ccccc3c3ccnc1c23 stands at 24.9

* * *

Tested on: DU-145 prostate
Experiment: NCI tumour cell line growth inhibition, 48 h
Entries annotated with measured TGI

compound	experimental target	TGI
C[C@]12CC[C@H]3[C@@H](CCC4=C[C@@H](N5CCCC5)CC[C@@]43C)[C@@H]1C/C(=C\c1ccncc1)[C@@H]2O	DU-145 prostate	39.5 µM

For reference, reported TGI for O=C(CSc1ncnc2nc[nH]c12)c1ccccc1 stands at > 100 µM

For reference, reported TGI for C=Cc1c(C)c(O)cc2c1-c1ccc(O)c(C)c1CC2 stands at 28.5 µM

For reference, reported TGI for COC(=O)C1=C(C(=O)OC)SC(=C(Cl)C(=S)Oc2ccccc2N)S1 stands at > 50 µM

* * *

Tested on: SN12C renal
Assay: NCI tumour cell line growth inhibition, 48 h
measure: TGI

These solved cases illustrate the format of a correct answer.
compound	TGI
Nc1nc2c(c(=O)[nH]1)CN(CCCN1CCOCC1)CN2	> 100 µM
O=C1CSC(c2ccc([N+](=O)[O-])cc2)N1c1nc(-c2ccc3c(c2)CCCC3)cs1 (configuration not stated)	> 100 µM
O=C(/C=C\Sc1ccccn1)c1cccc(Br)c1	24.3 µM
CC1=C(Cc2ccccc2)C(Cc2ccccc2)=C(C)S1=O	84.1 µM
C=CCNC(=S)/N=C\C(C(=O)OCC)=C(/O)C(=O)OCC	> 100 µM

For reference, reported TGI for OC1CCCCCCCCCCC1SCCCCl (configuration not stated) stands at > 100 µM

For reference, reported TGI for O=C(Nc1sccc1S(=O)(=O)c1ccc(Cl)cc1)c1ccc(Cl)cc1 stands at > 100 µM

For reference, reported TGI for Cn1c(=O)c2[nH]c(CSCc3ccccc3)nc2n(C)c1=O stands at > 100 µM

For reference, reported TGI for COc1ccc(C2=C(c3cn(C)c4ccccc34)C(=O)OC2)cc1OC stands at > 100 µM

For reference, reported TGI for O=C(Nc1c(O)[nH]c(=S)[nH]c1=O)c1ccco1 stands at > 100 µM

For reference, reported TGI for CC12CCCCC1C(=O)C2(Cl)Cl (configuration not stated) stands at 12.3 µM

* * *

Tested on: K-562 leukemia
Assay: NCI tumour cell line growth inhibition, 48 h
Entries annotated with measured TGI

These solved cases illustrate the format of a correct answer.
compound	TGI
COc1cc([C@@H]2c3cc4c(c(O[C@@H]5O[C@H]6CO[C@@H](C)O[C@H]6[C@H](O)[C@@H]5O)c3C[C@H]3COC(=O)[C@@H]32)OCO4)cc(OC)c1O	> 100 µM
O=C(OCCO)C1CC2CC1C1(C2)OCCO1 (stereo not given)	> 100 µM
O=c1[nH]ccc2c1ccn2C1CC(O)C(CO)O1 (stereo not given)	> 100 µM
O=S(=O)(SCCCCSS(=O)(=O)c1ccc(Cl)cc1)c1ccc(Cl)cc1	48.8 µM
COc1nc2c(nc(N)n2C2OC(CO)C(O)C(O)C2O)c(=O)[nH]1 (stereo not given)	> 100 µM

For reference, reported TGI for COC1CC(Br)(C#N)C1 (stereo not given) stands at > 100 µM

For reference, reported TGI for O=C(O)C(F)(F)C(F)(F)C(F)(F)C(F)(F)C(F)(F)C(F)(F)C(F)(F)C(F)(F)F stands at 92.4 µM

For reference, reported TGI for COc1cc(O)cc2oc(-c3ccc(O)cc3)cc(=O)c12 stands at > 100 µM

For reference, reported TGI for C/C(=N\OCC(O)CNC(C)C)c1ccc2c(c1)NC(=O)CS2 (stereo not given) stands at > 100 µM
